Target: GlyT1 (Homo sapiens)
Construct: expressed in transfected cells
Sequence (P48067 whole entry): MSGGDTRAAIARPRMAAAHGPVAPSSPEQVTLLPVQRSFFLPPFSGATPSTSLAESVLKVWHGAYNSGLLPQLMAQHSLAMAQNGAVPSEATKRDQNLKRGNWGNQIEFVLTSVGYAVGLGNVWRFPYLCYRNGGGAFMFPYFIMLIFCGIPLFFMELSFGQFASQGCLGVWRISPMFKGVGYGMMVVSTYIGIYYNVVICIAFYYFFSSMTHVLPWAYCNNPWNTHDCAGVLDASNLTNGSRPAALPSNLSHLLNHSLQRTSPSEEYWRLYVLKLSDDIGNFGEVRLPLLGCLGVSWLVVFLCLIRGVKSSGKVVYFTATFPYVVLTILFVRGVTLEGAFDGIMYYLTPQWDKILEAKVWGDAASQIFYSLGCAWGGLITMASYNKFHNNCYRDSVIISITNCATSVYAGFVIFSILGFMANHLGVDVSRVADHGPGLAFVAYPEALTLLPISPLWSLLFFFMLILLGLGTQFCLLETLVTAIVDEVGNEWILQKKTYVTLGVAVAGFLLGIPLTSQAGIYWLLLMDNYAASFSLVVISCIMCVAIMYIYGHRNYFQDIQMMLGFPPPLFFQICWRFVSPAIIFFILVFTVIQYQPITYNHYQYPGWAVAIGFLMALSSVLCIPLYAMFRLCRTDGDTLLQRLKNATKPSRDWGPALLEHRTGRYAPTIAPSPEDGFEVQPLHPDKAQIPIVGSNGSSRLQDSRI
Assay: Glycine Transporter 1 (GlyT1) uptake assay, scintillation proximity assay of [14C]-glycine uptake
Format: cell-based
Settings: [14C]-glycine uptake; read-out: GlyT1 (pIC50) (converted)
Listing: IC50 of selected compounds

Consider the worked cases shown below.
| compound | tgt | IC50 |
| --- | --- | --- |
| COc1c(S(C)(=O)=O)ccc(OC(C)C(F)(F)F)c1C(=O)N1CC(Oc2ccc(F)c(F)c2)C1 (stereo not shown) | GlyT1 (Homo sapiens) | < 100 nM |
| COc1c(S(C)(=O)=O)ccc(O[C@@H](C)C(F)(F)F)c1C(=O)N1CC(c2cc(C)ccc2F)C1 | GlyT1 (Homo sapiens) | < 100 nM |
| COc1c(C#N)ccc(O[C@H](C)C(F)(F)F)c1C(=O)N1CC(c2ccc(C(F)(F)F)cc2)C1 | GlyT1 (Homo sapiens) | 1000 to 10000 nM |
| COc1c(C#N)ccc(O[C@@H](C)C(F)(F)F)c1C(=O)N1CC(c2ccccc2C#N)C1 | GlyT1 (Homo sapiens) | < 100 nM |
| COc1c(C#N)ccc(C2(F)CCC(F)(F)CC2)c1C(=O)N1CC(c2ccc(C#N)cc2Cl)C1 | GlyT1 (Homo sapiens) | < 100 nM |
| COc1c(S(C)(=O)=O)ccc(OCC(C)(C)C)c1C(=O)N1CC(c2ncc(C(F)(F)F)cc2Cl)C1 | GlyT1 (Homo sapiens) | < 100 nM |

The value of IC50 measured for the compound CC(Oc1ccc(C#N)c(Cl)c1C(=O)N1CC(c2ccccn2)C1)C(F)(F)F (stereo not shown) turned out to be 100 to 1000 nM
